Each entry below carries its recorded binding normalized to PSGL-1.
# Tested Target: T1, Human complement C4 protein (Millipore Sigma, Cat. 204886) (human, UniProt P0C0L4 20-675; P0C0L4 680-1446; P0C0L4 1454-1744, limits assumed, natural sulfotyrosines)
# T1 construct: mature
# T1 sequence (P0C0L4 20-675 limits assumed, form in doubt, chain 1 of 3): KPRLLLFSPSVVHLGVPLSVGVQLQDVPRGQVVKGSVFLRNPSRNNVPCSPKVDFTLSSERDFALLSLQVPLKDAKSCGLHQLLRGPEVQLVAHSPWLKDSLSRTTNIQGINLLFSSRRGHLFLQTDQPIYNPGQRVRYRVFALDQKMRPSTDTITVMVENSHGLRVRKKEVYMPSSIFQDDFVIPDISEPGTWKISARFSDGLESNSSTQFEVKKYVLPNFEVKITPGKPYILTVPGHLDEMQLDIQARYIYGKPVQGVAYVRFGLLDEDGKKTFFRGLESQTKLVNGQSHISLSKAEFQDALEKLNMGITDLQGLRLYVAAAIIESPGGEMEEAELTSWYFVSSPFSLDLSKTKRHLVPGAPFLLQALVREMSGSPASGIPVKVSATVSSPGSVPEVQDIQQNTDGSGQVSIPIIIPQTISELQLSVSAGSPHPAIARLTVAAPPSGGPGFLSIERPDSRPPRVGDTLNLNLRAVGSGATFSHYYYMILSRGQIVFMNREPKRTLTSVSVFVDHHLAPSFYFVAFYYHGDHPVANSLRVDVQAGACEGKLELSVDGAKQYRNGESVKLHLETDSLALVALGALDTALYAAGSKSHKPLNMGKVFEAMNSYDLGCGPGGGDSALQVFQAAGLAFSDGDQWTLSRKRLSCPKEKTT
# T1 sequence (P0C0L4 680-1446 limits assumed, form in doubt, chain 2 of 3): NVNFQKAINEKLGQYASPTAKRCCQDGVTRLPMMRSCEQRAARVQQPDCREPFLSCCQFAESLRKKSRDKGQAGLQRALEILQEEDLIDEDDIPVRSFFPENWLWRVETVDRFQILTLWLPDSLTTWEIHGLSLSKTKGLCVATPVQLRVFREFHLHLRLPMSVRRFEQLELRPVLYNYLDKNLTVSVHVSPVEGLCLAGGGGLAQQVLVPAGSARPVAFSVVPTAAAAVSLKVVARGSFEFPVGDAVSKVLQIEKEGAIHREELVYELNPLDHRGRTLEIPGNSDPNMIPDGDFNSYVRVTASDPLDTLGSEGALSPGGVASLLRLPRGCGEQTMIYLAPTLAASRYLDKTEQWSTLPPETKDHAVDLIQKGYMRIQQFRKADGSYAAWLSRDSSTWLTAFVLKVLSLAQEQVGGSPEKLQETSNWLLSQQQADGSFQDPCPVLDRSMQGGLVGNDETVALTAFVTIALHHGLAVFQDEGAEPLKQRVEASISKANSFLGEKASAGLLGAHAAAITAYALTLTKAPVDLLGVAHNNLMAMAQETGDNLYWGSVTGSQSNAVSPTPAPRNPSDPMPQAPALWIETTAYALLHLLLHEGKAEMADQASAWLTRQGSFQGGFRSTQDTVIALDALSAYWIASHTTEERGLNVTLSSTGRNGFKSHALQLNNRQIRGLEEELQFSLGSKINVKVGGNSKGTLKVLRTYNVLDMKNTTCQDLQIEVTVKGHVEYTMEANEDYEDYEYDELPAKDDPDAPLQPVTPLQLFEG
# T1 sequence (P0C0L4 1454-1744 limits assumed, form in doubt, chain 3 of 3): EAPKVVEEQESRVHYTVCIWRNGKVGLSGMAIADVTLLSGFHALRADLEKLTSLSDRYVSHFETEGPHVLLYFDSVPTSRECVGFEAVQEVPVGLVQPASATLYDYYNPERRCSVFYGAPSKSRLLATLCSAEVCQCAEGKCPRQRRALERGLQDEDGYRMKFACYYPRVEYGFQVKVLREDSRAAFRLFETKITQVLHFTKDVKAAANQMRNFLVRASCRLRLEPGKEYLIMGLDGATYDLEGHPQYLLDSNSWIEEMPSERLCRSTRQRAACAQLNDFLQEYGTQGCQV
# Test Description: ELISA, 50 nM mAb

{"Binder": "06A07 (antibody, IgG4, V domains shown) VH: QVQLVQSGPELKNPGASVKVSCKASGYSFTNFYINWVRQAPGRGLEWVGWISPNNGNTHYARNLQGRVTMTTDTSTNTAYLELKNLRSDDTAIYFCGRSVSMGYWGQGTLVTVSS VL: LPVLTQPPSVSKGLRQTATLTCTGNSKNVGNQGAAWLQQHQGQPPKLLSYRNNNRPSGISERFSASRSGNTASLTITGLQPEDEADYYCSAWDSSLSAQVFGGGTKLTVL", "binding normalized to PSGL-1": 0.57}
{"Binder": "05A11 (antibody, IgG4, V domains shown) VH: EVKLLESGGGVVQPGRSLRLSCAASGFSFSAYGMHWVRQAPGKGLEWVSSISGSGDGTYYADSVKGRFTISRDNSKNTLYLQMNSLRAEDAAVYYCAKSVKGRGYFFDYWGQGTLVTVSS VL: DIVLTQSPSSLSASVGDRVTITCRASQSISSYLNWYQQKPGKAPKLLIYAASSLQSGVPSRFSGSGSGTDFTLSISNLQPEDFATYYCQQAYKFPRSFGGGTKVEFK", "binding normalized to PSGL-1": 0.44}
{"Binder": "5E12 (antibody, V domains shown, Mouse hybridoma mAb; only variable domains given) VH: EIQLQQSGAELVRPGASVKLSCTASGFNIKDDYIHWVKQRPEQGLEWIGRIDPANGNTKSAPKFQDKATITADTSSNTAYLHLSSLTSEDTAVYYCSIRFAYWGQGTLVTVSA VL: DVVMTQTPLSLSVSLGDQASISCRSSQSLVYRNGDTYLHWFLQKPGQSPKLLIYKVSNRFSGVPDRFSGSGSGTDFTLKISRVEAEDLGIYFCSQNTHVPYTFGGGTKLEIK", "binding normalized to PSGL-1": 0.03}
